B1: CAMK2A (parent)
chain: CIQQILEAVLHCHQMGVVHRDLKP

variants of: B1; assay: protein stability index of a GFP-peptide fusion (GPS, HEK-293T) (PSI 1-6); higher = more stable; details: c terminus: a fixed tail appended;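 further: lentivirally expressed fusions sorted by FACS into six bins by GFP to DsRed ratio, PSI derived from sequencing read proportions per bin multiplied by bin number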
readout: protein stability index

variant_notation: Q14P
numeric_result: 2

variant_notation: E7Y
numeric_result: 4.43

variant_notation: A8W
numeric_result: 4.4

variant_notation: E7K
numeric_result: 2.25

variant_notation: H19F
numeric_result: 3.5

variant_notation: Q3D
numeric_result: 3.17

variant_notation: P24F
numeric_result: 2.58

variant_notation: Q14N
numeric_result: 1.28

variant_notation: V18F
numeric_result: 1.78

variant_notation: H19I
numeric_result: 2.01

variant_notation: C1I
numeric_result: 3.46

variant_notation: V9A
numeric_result: 1.86

variant_notation: V9Y
numeric_result: 3.08

variant_notation: L6M
numeric_result: 2.75

variant_notation: C1L
numeric_result: 3.19

variant_notation: D21G
numeric_result: 2.28

variant_notation: V18Q
numeric_result: 3.46

variant_notation: K23H
numeric_result: 3.03

variant_notation: V17A
numeric_result: 1.8

variant_notation: V18S
numeric_result: 1.92

variant_notation: Q14R
numeric_result: 1.94

variant_notation: I2C
numeric_result: 3.15
